experiment: Plasma concentration profile over 8 hours in mice (LC/MS); format: in vivo, CD-1 Female Mice; conditions: female, CD-1; 60 mg/kg ip in PBS, mouse plasma; read-out: Elimination half-life (converted)
measure_name: half-life

QUERY: Quick one: half-life of Cc1cn2c(nc1=O)O[C@H]1[C@H](O)[C@@H](CO)O[C@H]12 ?
RESULT: ~2.5 h
